# Target Or System: EGFR TMLRCS (T790M/L858R/C797S), BaF3-TMLRCS cell line (Homo sapiens, UniProt P00533, C797S/L858R/T790M)
# Sequence (P00533 25-1210 T790M/C797S/L858R): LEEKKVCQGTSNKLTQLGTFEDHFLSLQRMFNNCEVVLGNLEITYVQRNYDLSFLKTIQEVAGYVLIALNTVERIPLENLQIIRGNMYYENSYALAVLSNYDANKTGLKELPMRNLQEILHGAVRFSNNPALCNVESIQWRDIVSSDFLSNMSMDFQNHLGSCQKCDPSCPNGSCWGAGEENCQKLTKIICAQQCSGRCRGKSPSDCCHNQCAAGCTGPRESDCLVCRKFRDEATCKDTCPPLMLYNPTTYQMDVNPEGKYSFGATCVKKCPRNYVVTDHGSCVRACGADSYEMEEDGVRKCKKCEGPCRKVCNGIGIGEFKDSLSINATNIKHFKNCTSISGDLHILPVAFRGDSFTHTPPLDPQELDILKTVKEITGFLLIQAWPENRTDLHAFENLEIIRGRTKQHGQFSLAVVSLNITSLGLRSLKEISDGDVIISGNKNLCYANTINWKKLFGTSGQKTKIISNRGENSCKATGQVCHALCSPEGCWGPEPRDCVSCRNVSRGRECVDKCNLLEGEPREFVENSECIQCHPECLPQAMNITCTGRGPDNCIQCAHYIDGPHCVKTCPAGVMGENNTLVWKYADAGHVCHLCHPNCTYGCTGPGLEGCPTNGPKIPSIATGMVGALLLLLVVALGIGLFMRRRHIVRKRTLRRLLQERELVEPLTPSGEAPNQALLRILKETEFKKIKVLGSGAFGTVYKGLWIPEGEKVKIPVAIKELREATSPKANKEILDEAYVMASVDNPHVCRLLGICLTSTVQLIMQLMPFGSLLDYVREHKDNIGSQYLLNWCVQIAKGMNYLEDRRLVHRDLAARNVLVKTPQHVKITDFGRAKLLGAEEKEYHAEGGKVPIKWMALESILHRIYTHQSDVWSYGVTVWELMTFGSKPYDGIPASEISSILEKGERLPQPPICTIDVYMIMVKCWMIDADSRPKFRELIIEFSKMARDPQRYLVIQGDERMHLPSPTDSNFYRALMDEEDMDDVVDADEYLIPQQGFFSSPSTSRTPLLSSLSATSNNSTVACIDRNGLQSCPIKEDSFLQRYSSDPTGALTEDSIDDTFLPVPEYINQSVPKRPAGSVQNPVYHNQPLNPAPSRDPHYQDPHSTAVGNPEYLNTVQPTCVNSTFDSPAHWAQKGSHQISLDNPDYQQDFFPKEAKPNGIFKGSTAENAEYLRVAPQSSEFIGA
# Test Name: HTRF Phospho EGFR TMLRCS Assay (Cellular)
# Test Parameters: BaF3-TMLRCS cells, 4 hours compound incubation
Structures can show the parent of a compound that is named as a salt.
Outcome Measure: IC50 (nM)
Answer in nM, number only, no unit symbol.

Use the examples below as a reference point.
O=C(Nc1nccs1)C(c1ncn2c1CCC2)n1cc2c(Cl)cc(-c3ccc(N4CCNCC4)cc3)cc2n1 (stereo not shown) [Example 1, hydrochloride] : 7
CC(=O)N1CCN(c2ccc(-c3cc(Cl)c4cn(C(C(=O)Nc5nccs5)c5ncn6c5CCC6)nc4c3)cc2)CC1 (stereo not shown) : 5
CCN1CCN(c2ccc(-c3cc(Cl)c4cn(C(C(=O)Nc5nccs5)c5ncn6c5CCC6)nc4c3)cc2Cl)CC1 (stereo not shown) : 14

Lab note: next molecule to report on.
Measured IC50 of CCN1CCN(c2ccc(-c3cc(Cl)c4cn(C(C(=O)Nc5nccs5)c5ncn6c5CCC6)nc4c3Cl)cc2)CC1 (stereo not shown) : 11
